# ASSAY_METHOD_TEXT: Bioavailability and pharmacokinetics in normal rats
# Format: in vivo, rat
# CONDITION_DETAILS: female, CD, rat, plasma, iv, 100 mg/kg, rat plasma; I.V.
Structures can show the parent of a compound that is named as a salt.
MEASURE_NAME: AUC (µg·h/mL)

MOLECULE | OBSERVED
CC(C)c1ccc2oc3nc(N)c(C(=O)O)cc3c(=O)c2c1 [Amlexanox (salt), sodium salt] | 398

* * *

# ASSAY_METHOD_TEXT: Pharmacokinetics and bioavailability in normal mice
# Type: in vivo, mouse
# CONDITION_DETAILS: female, C57BL/6, iv; mouse plasma; i.v.; 10 mg/kg
Structures can show the parent of a compound that is named as a salt.
MEASURE_NAME: Cmax (µg/mL)

MOLECULE | MEASURE_NAME | OBSERVED
CC(C)c1ccc2oc3nc(N)c(C(=O)O)cc3c(=O)c2c1 [Amlexanox (salt), sodium salt] | Cmax | 55.7
